System: SF-295 CNS
Experiment: NCI tumour cell line growth inhibition, 48 h
assay readout: TGI

Example compounds with recorded TGI:
compound: COc1c(N2CCCCC2)c2c(=O)c3ccccc3oc2c2c3ccccc3n(C)c12
system under test: SF-295 CNS
TGI: > 100 µM
//
compound: c1ccc(N2CCN(CCCN3CCc4c([nH]c5ccccc45)C3c3cccnc3)CC2)cc1 (stereo unspecified)
system under test: SF-295 CNS
TGI: > 100 µM

Short answer for NCCCC(N)(C(=O)O)C(F)F (stereo unspecified) : TGI was > 5000 µM

TGI in this record for CCCc1nn(C)c(CCC(=O)N(Cc2ccccc2)Cc2ccccc2)c1CC : > 100 µM

GET /value?item= CC(C)(C)c1cc(OCc2n[nH]c(=S)n2N)c(Cl)cc1OCc1n[nH]c(=S)n1N &field=TGI returns > 100 µM

Form field TGI, entry CC(C)(C)C1CCC2c3c([nH]c4ccccc34)C3C(=O)N(c4cc(Cl)ccc4Cl)C(=O)C3C2C1 (stereo unspecified) : > 100 µM
